Reference for the values: ChEMBL document CHEMBL1156449

- Experiment Notes: Inhibition of PKC
Assay Endpoint: Ki

*Q* Request the reported Ki associated with NC(=O)c1cn([C@@H]2O[C@H](CO)[C@@H](O)[C@H]2O)c2ncnc(N)c12 [SANGIVAMYCIN]
*A* 10 µM

* * *

- Experiment Notes: Inhibition of nuclear protein kinase 1
Assay Endpoint: pKi
Quick note: pKi means taking -log10 of the concentration in moles per liter.

*Q* Request the reported pKi associated with NC(=O)c1cn([C@@H]2O[C@H](CO)[C@@H](O)[C@H]2O)c2ncnc(N)c12 [SANGIVAMYCIN]
*A* 3.70

* * *

- Experiment Notes: Inhibition of nuclear protein kinase 2
Assay Endpoint: Ki (µM)
Numbers only; they are read as µM.

*Q* Request the reported Ki associated with NC(=O)c1cn([C@@H]2O[C@H](CO)[C@@H](O)[C@H]2O)c2ncnc(N)c12 [SANGIVAMYCIN]
*A* 100

* * *

- Experimental System: UniProt Q15835
- Sequence (Q15835 whole entry): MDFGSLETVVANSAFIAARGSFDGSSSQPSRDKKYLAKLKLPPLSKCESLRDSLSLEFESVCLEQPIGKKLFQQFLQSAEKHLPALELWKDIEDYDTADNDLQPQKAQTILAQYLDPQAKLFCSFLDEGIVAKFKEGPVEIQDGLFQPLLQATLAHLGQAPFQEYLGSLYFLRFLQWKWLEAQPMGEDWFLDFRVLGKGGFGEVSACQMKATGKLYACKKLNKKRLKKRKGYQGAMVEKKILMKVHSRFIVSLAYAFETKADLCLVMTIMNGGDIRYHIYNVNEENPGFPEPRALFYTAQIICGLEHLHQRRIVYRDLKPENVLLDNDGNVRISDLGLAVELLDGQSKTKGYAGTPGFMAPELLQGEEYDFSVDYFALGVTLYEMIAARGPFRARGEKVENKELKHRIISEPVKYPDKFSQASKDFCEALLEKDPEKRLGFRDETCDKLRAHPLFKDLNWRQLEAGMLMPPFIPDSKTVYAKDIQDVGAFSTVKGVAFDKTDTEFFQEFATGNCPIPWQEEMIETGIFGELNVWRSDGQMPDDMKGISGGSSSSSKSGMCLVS
- Experiment Notes: Inhibition of rhodopsin kinase
Assay Endpoint: Ki (nM)
Numbers only; they are read as nM.

*Q* Request the reported Ki associated with `NC(=O)c1cn([C@@H]2O[C@H](CO)[C@@H](O)[C@H]2O)c2ncnc(N)c12`
*A* 180
